- System: Aβ production in 293 751 SWE and CHO 751 SWE cells (transfected with APP-751 Swedish mutation)
- ASSAY DETAILS: Aβ production inhibition activity in cells (Aβ ELISA of conditioned media, normalized for cytotoxicity by MTT)
- Format: cell-based
- ASSAY CONDITIONS: 2 h pretreatment + 2 h incubation
pIC50: −log10 of the molar value.

{"columns": ["COMPOUND", "RELATIONAL OPERATOR", "pIC50"],
 "data": [
  ["CC(C)(C)c1nnc(NC(=O)Nc2ccc(Cl)c(Cl)c2)s1", "=", 5.54],
  ["COc1ccc(CNC(=S)N(O)C(C)c2cccc(Oc3ccc(C(C)(C)C)cc3)c2)cc1 (centres unmarked)", "<", 4.70],
  ["CC(C)(C)c1ccc(Oc2ccc(NC(=S)NCc3ccc(F)cc3C(F)(F)F)cc2)cc1", "=", 5.10],
  ["CC(C)(C)c1ccc(Oc2ccc(NC(=S)NCC3CCCCN3)cc2)cc1 (centres unmarked)", "=", 5.15],
  ["CC(C)(C)c1ccc(SCc2ccc(CN(O)C(=S)NCc3ccccc3)cc2)cc1", "=", 4.88],
  ["CC(C)(C)c1ccc(COc2cccc(CN(O)C(=S)NCc3ccccc3)c2)cc1", "=", 5.17],
  ["CC(C)(C)c1ccc(Oc2ccc(NC(=S)NCc3ccncc3)cc2)cc1", "=", 4.63],
  ["Cc1ccc(CNC(=S)N(O)C(C)c2cccc(Oc3ccc(C(C)(C)C)cc3)c2)cc1Cl (centres unmarked)", "=", 5.05]
]}

====

- System: Aβ production in 293 751 SWE and CHO 751 SWE cells (transfected with APP-751 Swedish mutation)
- ASSAY DETAILS: Aβ production inhibition activity in cells (Aβ ELISA of conditioned media, normalized for cytotoxicity by MTT)
- Type: cell-based
- ASSAY CONDITIONS: 2 h pretreatment + 2 h incubation
OBSERVATION TYPE: log10 IC50 (log10 of the value in µM)

{"columns": ["MOLECULE", "log10 IC50"],
 "data": [
  ["CSc1ccc(NC(=O)Nc2ccc(SC)c(Br)c2)cc1 [Compound 164]", 1.16],
  ["CCC(c1cccc(Oc2ccc(C(C)(C)C)cc2)c1)N(O)C(=S)NCc1ccccc1 (centres unmarked) [Compound 20]", 0.56],
  ["CC(c1cccc(Oc2ccc(C(C)(C)C)cc2)c1)N(O)C(=S)NCc1ccc(F)cc1 (centres unmarked) [Compound 4]", 1.05],
  ["CCCCCCNC(=S)NCc1cccc(Oc2ccc(C(C)(C)C)cc2)c1 [Compound 42]", 1.24],
  ["O=C(Nc1ccc(Cl)c(Cl)c1)Nc1nnc(Br)s1 [Compound 240]", 0.26],
  ["CCCCCCNC(=S)N(O)Cc1cccc(S(=O)(=O)c2ccc(C(C)(C)C)cc2)c1 [Compound 90]", 1.34],
  ["CCCc1cc(C(C)(C)C)ccc1Oc1cccc(CN(O)C(=O)Nc2ccc(Cl)c(C(F)(F)F)c2)c1 [Compound 103]", 1.30],
  ["CCCCCCNC(=S)N(O)Cc1ccc(OCc2ccc(C(C)=O)c(O)c2CCC)cc1 [Compound 68]", 1.29],
  ["O=C(Nc1ccc(Cl)c(Cl)c1)Nc1nc2ccccc2[nH]1 [Compound 140]", 1.24],
  ["CC(C)(C)c1ccc(Sc2cccc(CN(O)C(=S)NCc3ccccc3)c2)cc1 [Compound 86]", 0.77],
  ["CC(C)(C)c1ccc(Oc2ccc(NC(=S)NCc3ccc(Br)cc3)cc2)cc1 [Compound 108]", 0.95],
  ["CC(C)(C)c1ccc(Oc2ccc(NC(=S)NCc3cccc(F)c3)cc2)cc1 [Compound 112]", 0.88],
  ["CC(C)(C)c1ccc(Oc2cccc(CN(O)C(=S)NCc3ccccc3)c2)cc1 [Compound 26]", 0.53],
  ["CC(C)(C)c1ccc(Oc2cccc(NC(=S)Nc3ccc(Cl)c(C(F)(F)F)c3)c2)cc1 [Compound 168]", 0.59],
  ["CC(C)(C)c1ccc(Oc2cccc(NC(=S)Nc3ccc(Cl)cc3)c2)cc1 [Compound 192]", 0.94],
  ["CC(C)(C)c1ccc(Oc2ccc(NC(=S)NCc3ccccc3Cl)cc2)cc1 [Compound 104]", 1.13],
  ["CC(C)(C)c1noc(C(=O)Nc2ccc(Cl)c(Cl)c2)n1 [Compound 246]", 0.76],
  ["CC(C)(C)c1ccc(Oc2cccc(NC(=S)NCc3ccccc3)c2)cc1 [Compound 186]", 0.95],
  ["CC(C)(C)c1ccc(Oc2ccc(NC(=S)NC3CCCCC3)cc2)cc1 [Compound 119]", 1.18],
  ["CSc1ccc(NC(=O)Nc2ccc(Cl)c(Cl)c2)cc1 [Compound 154]", 0.93],
  ["CC(C)(C)c1cccc(Oc2ccc(NC(=S)Nc3cccc(C(F)(F)F)c3)cc2)c1 [Compound 176]", 0.66],
  ["CCCCCCNC(=S)N(O)C(C)c1cccc(Oc2ccc(C(C)(C)C)cc2)c1 (centres unmarked) [Compound 19]", 1.04],
  ["CC(C)(C)c1cc(C(=O)Nc2ccc(Cl)c(Cl)c2)on1 [Compound 245]", 0.99],
  ["CCCCCCNC(=S)N(O)Cc1cccc(Sc2ccc(C(C)(C)C)cc2)c1 [Compound 87]", 1.00],
  ["CC(C)(C)c1ccc(Oc2ccc(NC(=S)NCCc3ccccn3)cc2)cc1 [Compound 123]", 1.09],
  ["CCCCCCNC(=S)N(O)Cc1cccc(Oc2ccc(C(C)(C)C)cc2CCC)c1 [Compound 102]", 0.79],
  ["CC(C)(C)c1ccc(Oc2ccccc2NC(=S)Nc2ccc(Cl)c(C(F)(F)F)c2)cc1 [Compound 170]", 0.64],
  ["CC(C)(C)c1ccc(Oc2ccccc2N(O)C(=S)Nc2ccc(Cl)c(C(F)(F)F)c2)cc1 [Compound 171]", 1.03],
  ["S=C(NCc1ccccc1)Nc1ccc(Cl)c(Cl)c1 [Compound 146]", 1.34],
  ["CSc1ccc(NC(=O)Nc2ccc(Cl)c(Cl)c2)cc1Br [Compound 150]", 0.72],
  ["CCCCc1ccc(Oc2cccc(C(C)N(O)C(=S)NCc3ccccc3)c2)cc1 (centres unmarked) [Compound 45]", 0.96],
  ["O=C(Nc1ccc(Cl)c(Cl)c1)Nc1nnc(C(F)(F)F)s1 [Compound 236]", 0.62],
  ["CCCCCCNC(=S)N(O)C(CC)c1cccc(Oc2ccc(C(C)(C)C)cc2)c1 (centres unmarked) [Compound 24]", 0.94],
  ["CCCCCCNC(=S)N(O)Cc1ccc(Sc2ccc(C(C)(C)C)cc2)cc1 [Compound 89]", 0.72],
  ["CCCCOc1ccc(NC(=S)N(O)C(CC)c2cccc(Oc3ccc(C(C)(C)C)cc3)c2)cc1 (centres unmarked) [Compound 25]", 1.20]
]}
